molecular target: T1, rHuman CD44/Fc Chimera, CF (R&D Systems Cat#3660-CD) (human, UniProt P16070 21-220); assay: ECL multispot (MSD) assay; antigen spotted on plate, Fab in solution;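 also: purified Fab incubated 1 hour at 20 °C in 1% BSA TBST on antigen-coated wells, detected with TAG antibody, ECL read on Sector Imager 2400, compared to each well's blank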
T1 construct: Bought protein; Fc part of the bought chimera not given
endpoint-name: ECL signal (ECL signal)
# number only, unit ECL signal dropped from output

## Input Would you kindly share the measured ECL signal for Fab VH1-46_IGHD6-6*01_IGHJ1*01 S102A/S103P/S104F (APF) & L6_IGKJ1*01 S30T (Fab, V domains shown, Tested as Fab made in E. coli; The heavy chain vector (Plasmid A) adds CH1 with His and Flag tags, the kappa vector (Plasmid C) adds CL kappa; also called APF / S30T) VH: QVQLVQSGAEVKKPGASVKVSCKASGYTFTSYYMHWVRQAPGQGLEWMGIINPSGGSTSYAQKFQGRVTMTRDTSTSTVYMELSSLRSEDTAVYYCAREEYAPFSAEYFQHWGQGTLVTVSS VL: EIVLTQSPATLSLSPGERATLSCRASQSVTSYLAWYQQKPGQAPRLLIYDASNRATGIPARFSGSGSGTDFTLTISSLEPEDFAVYYCQQRSNWPPWTFGQGTKVEIKR ?
## Output 229
